B1: ZNF232 (parent)
chain: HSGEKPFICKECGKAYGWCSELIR

variants of: B1; test: protein stability index of a GFP-peptide fusion (GPS, HEK-293T) (PSI 1-6); higher = more stable; conditions: c terminus: a fixed tail appended;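 note: lentivirally expressed fusions sorted by FACS into six bins by GFP to DsRed ratio, PSI derived from sequencing read proportions per bin multiplied by bin number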
Assign class by protein stability index: not lower than 2 means 1.0; lower than 2 means 0.0.

Use these answered entries as a reference point.
INSERT INTO assay_data (mutant_code, label) VALUES
  ('G17D', 1.0),
  ('G17Y', 1.0),
  ('A15M', 0.0),
  ('C12H', 0.0),
  ('A15Y', 0.0),
  ('R24D', 1.0),
  ('E21T', 1.0),
  ('Y16V', 0.0),
  ('K14G', 1.0),
  ('S20Y', 0.0);

// query Kindly determine if protein stability index recorded for S20N is above or exactly 2.
// result 1.0

// query Kindly determine if protein stability index recorded for E21L is above or exactly 2.
// result 1.0

// query Kindly determine if protein stability index recorded for I8N is above or exactly 2.
// result 1.0

// query Kindly determine if protein stability index recorded for I8R is above or exactly 2.
// result 0.0

// query Kindly determine if protein stability index recorded for I23S is above or exactly 2.
// result 0.0

Source listed as the supplement of paper PMC10567573.
